The reported measurements were obtained from patent US20260055083A1.

- TEST_TARGET: APOL1 G2 (Homo sapiens, UniProt O14791, DEL388-389)
- Sequence (O14791 with tags, fused parts or gaps DEL388-389): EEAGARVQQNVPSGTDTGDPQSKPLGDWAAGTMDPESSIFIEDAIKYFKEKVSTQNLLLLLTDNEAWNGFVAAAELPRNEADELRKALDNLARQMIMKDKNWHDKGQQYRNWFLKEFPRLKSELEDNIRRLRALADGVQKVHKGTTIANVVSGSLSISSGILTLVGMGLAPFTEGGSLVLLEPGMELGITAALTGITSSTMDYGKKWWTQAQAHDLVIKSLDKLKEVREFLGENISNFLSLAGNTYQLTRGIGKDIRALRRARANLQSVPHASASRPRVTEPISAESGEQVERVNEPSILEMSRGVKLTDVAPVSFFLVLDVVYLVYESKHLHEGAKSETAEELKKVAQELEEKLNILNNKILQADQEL
- ASSAY_PROCEDURE: APOL1 G2 HEK293 rescue of cell death caused by overexpression of APOL1 (CellTiter-Glo)
- CONDITIONS_USED: HEK293/T-REx APOL1 G2 clone #2, doxycycline induction, 17 hours, CellTiter-Glo luminescence; reversal of cell death; geometric mean of at least 2 assay runs
What pEC50 was measured for each of the following?
Numbers only, as −log10 of the molar value.

Study these solved cases before continuing.
COMPOUND: C[C@@H]1CN(CCc2cccc(C#N)c2)C[C@H]1COc1cc(F)c(S(C)(=O)=O)c(F)c1 [Compound 81]
pEC50: 6.84

COMPOUND: C[C@@H]1C[C@H](COc2ccc(S(=O)(=O)CCCS(C)(=O)=O)cc2)CN1C1CCc2c(C#N)cc(Cl)cc2C1 (single isomer, unassigned) [Compound 45]
pEC50: 6.52

COMPOUND: CC(=O)N(C)CCS(=O)(=O)c1ccc(OC[C@@H]2CN(CCc3cccc(C#N)c3)C[C@H]2C)cc1 [Compound 76]
pEC50: 6.65

Would you mind listing pEC50 for each of the following compounds?
1. CC(Cc1cc(Cl)cc(C#N)c1)N1C[C@@H](COc2ccc(S(C)(=O)=O)cc2)[C@H](C)C1 (single isomer, unassigned) [Compound 18]
2. C[C@@H]1C[C@H](COc2ccc(S(=O)(=O)C3CNC3)cc2)CN1C1CCc2ccc(C#N)cc2C1 (single isomer, unassigned) [Compound 28]
3. CC(Cc1cc(Cl)cc(C#N)c1)N1C[C@@H](COc2ccc(S(C)(=O)=O)cc2)[C@H](C)C1 (single isomer, unassigned) [Compound 19]
4. C[C@@H]1CN(CCc2cc(C#N)cc(C#N)c2)C[C@H]1COc1ccc(S(C)(=O)=O)nc1 [Compound 74]
5. CS(=O)(=O)c1ccc(OC[C@@H]2CN(C(CO)Cc3cccc(Cl)c3)CCN2)cc1 (single isomer, unassigned) [Compound 119]
6. CC(=O)N(C)CCS(=O)(=O)c1ccc(OC[C@@H]2CN(CCc3cc(Cl)cc(C#N)c3)C[C@H]2C)cc1 [Compound 75]
7. CN=S(C)(=O)c1ccc(OC[C@@H]2CN(CCc3cccc(C#N)c3)C[C@H]2C)cn1 (stereo partly shown) [Compound 71]

1: 6.58; 2: 6.40; 3: 6.19; 4: 6.18; 5: 6.20; 6: 7.15; 7: 6.54

Would you mind listing pEC50 for each of the following compounds?
1. C[C@@H]1C[C@H](COc2ccc(S(C)(=O)=O)cc2)CN1C1CCc2c(C#N)cccc2C1 (single isomer, unassigned) [Compound 134]
2. CC(C(O)c1cc(Cl)cc(C#N)c1)N1C[C@@H](COc2ccc(S(C)(=O)=O)cc2)C[C@H]1C (single isomer, unassigned) [Compound 99]

[6.53, 6.60]

====

- TEST_TARGET: APOL1 G2 (Homo sapiens, UniProt O14791, DEL388-389)
- Construct: expressed in transfected cells; host or cells: HEK293/T-REx APOL1 G2 clone #2, doxycycline-inducible
- ASSAY_PROCEDURE: APOL1 G2 HEK293 rescue of cell death caused by overexpression of APOL1 (CellTiter-Glo)
- Assay type: cell-based
- CONDITIONS_USED: HEK293/T-REx APOL1 G2 clone #2, doxycycline induction, 17 hours, CellTiter-Glo luminescence; reversal of cell death; geometric mean of at least 2 assay runs
What EC50 was measured for each of the following?
Numbers only, in nM.

Study these solved cases before continuing.
COMPOUND: Cc1cc(OC[C@H]2C[C@@H](C)N(CCc3cccc(C#N)c3)C2)cnc1S(C)(=O)=O (single isomer, unassigned) [Compound 30]
EC50 (nM): 38.4

COMPOUND: C[C@@H]1C[C@H](COc2ccc(S(C)(=O)=O)cc2)CN1C1CCc2ccc(C#N)cc2C1 (single isomer, unassigned) [Compound 137]
EC50 (nM): 35.8

COMPOUND: C[C@@H]1C[C@H](COc2ccc(S(=O)(=O)CCCS(C)(=O)=O)cc2)CN1C1CCc2c(C#N)cccc2C1 (single isomer, unassigned) [Compound 42]
EC50 (nM): 227

Would you mind listing EC50 for each of the following compounds?
1. CS(=O)(=O)C1(c2ccc(OC[C@@H]3CN(CCc4cc(Cl)cc(C#N)c4)CCN3)cc2)COC1 [Compound 111]
2. C[C@@H]1C[C@H](COc2ccc(S(C)(=O)=O)cc2)CN1CC(CO)c1cc(Cl)cc(C#N)c1 (single isomer, unassigned) [Compound 130]

137
303

Would you mind listing EC50 for each of the following compounds?
1. COC(=O)CCCS(=O)(=O)c1ccc(OC[C@@H]2CN(CCc3cccc(Cl)c3)C[C@H]2C)cc1 [Compound 79]
2. C[C@@H]1C[C@H](COc2ccc(S(C)(=O)=O)cc2)CN1C1CCc2ccc(Cl)cc2C1 (single isomer, unassigned) [Compound 5]
3. C[C@@H]1C[C@H](COc2ccc(S(=O)(=O)CCCS(C)(=O)=O)cc2)CN1C1CCc2c(C#N)cccc2C1 (single isomer, unassigned) [Compound 41]

1. 334
2. 47.6
3. 62.8

Would you mind listing EC50 for each of the following compounds?
1. C[C@@H]1C[C@H](COc2ccc(S(=O)(=O)C3CNC3)cc2)CN1C1CCc2ccc(C#N)cc2C1 (single isomer, unassigned) [Compound 29]
2. CC(=O)N(C)CCS(=O)(=O)c1ccc(OC[C@H]2C[C@@H](C)N(CCc3cc(Cl)cc(C#N)c3)C2)cc1 [Compound 66]
3. CC(c1ccc(OC[C@@H]2CN(CCc3cccc(Cl)c3)CCN2)cc1)S(C)(=O)=O (single isomer, unassigned) [Compound 142]
4. C[C@@H]1C[C@H](COc2ccc(S(=O)(=O)CCO)cc2)CN1C1CCc2ccc(C#N)cc2C1 (single isomer, unassigned) [Compound 60]

[58.4, 76.8, 231, 37]
